Entry source: the supplement of paper PMC9112550

# Tested on: Escherichia coli TOP10
# Assay details: shrunken log2 fold change of peptide-encoding DNA abundance (4.5 h post-induction vs induction); higher = less antimicrobial activity (less host growth inhibition)
# Setup conditions: time post-induction: 4.5 h; library: site-saturation at positions 5, 18, 19, 20
Measurement kind: shrunken log2 fold change
Answers are plain numbers.

Here are 8 sequences together with their reported answers.
{"Residues": "RRIRNRPPRLPRPRPRPFFQPRP", "Result value": -0.427}
{"Residues": "RRIRHRPPRLPRPRPRPGTPPRP", "Result value": 0.104}
{"Residues": "RRIRQRPPRLPRPRPRPVDWPRP", "Result value": 0.39}
{"Residues": "RRIRGRPPRLPRPRPRPEVTPRP", "Result value": 0.168}
{"Residues": "RRIRMRPPRLPRPRPRPTICPRP", "Result value": 0.0136}
{"Residues": "RRIRDRPPRLPRPRPRPHRYPRP", "Result value": -0.21}
{"Residues": "RRIRFRPPRLPRPRPRPLQMPRP", "Result value": 0.236}
{"Residues": "RRIRSRPPRLPRPRPRPYVEPRP", "Result value": -0.442}

Hello, I would appreciate it if you could give shrunken log2 fold change for each entry below.
1. RRIRCRPPRLPRPRPRPSHYPRP
2. RRIRCRPPRLPRPRPRPWNWPRP
3. RRIRMRPPRLPRPRPRPLYVPRP
4. RRIRARPPRLPRPRPRPAPIPRP
5. RRIRMRPPRLPRPRPRPVKLPRP
6. RRIRTRPPRLPRPRPRPSWTPRP
7. RRIRRRPPRLPRPRPRPCQIPRP

Output:
1: -0.349; 2: -0.0303; 3: -0.111; 4: 0.448; 5: -0.0873; 6: -0.468; 7: -0.211

====

# Test system: Escherichia coli TOP10;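 also: peptides expressed intracellularly from a pBAD plasmid library in pooled LB shake-flask culture, induced with 0.3% L-arabinose, DNA abundance read by NGS, three biological replicates, DESeq2 with apeglm shrinkage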
# Assay details: shrunken log2 fold change of peptide-encoding DNA abundance (4.5 h post-induction vs induction); higher = less antimicrobial activity (less host growth inhibition)
# Setup conditions: time post-induction: 4.5 h; library: site-saturation at positions 5, 18, 19, 20
Is shrunken log2 fold change at least -0.04? Then Satisfied. If not, Not satisfied.

Here's what some known entries look like.
{"Residues": "RRIRWRPPRLPRPRPRPWPWPRP", "Class assignment": "Not satisfied"}
{"Residues": "RRIRFRPPRLPRPRPRPNQKPRP", "Class assignment": "Not satisfied"}
{"Residues": "RRIRIRPPRLPRPRPRPRNYPRP", "Class assignment": "Satisfied"}
{"Residues": "RRIRHRPPRLPRPRPRPDHCPRP", "Class assignment": "Satisfied"}

Task: Would you say `RRIRCRPPRLPRPRPRPGGRPRP` shows shrunken log2 fold change at minimum -0.04?
Output: Satisfied

Task: Test whether the sequence `RRIRERPPRLPRPRPRPIGYPRP` records shrunken log2 fold change of -0.04 or higher.
Output: Satisfied

Task: API: above_or_equal(metric=shrunken log2 fold change, cutoff=-0.04) for item `RRIRNRPPRLPRPRPRPGYLPRP`
Output: Satisfied

Task: Decide: shrunken log2 fold change of `RRIRPRPPRLPRPRPRPYGWPRP` >= -0.04?
Output: Not satisfied

Task: Determine whether measured shrunken log2 fold change meets or exceeds -0.04 for `RRIRNRPPRLPRPRPRPQNSPRP`
Output: Not satisfied

Task: shrunken log2 fold change >= -0.04 for `RRIRNRPPRLPRPRPRPLFSPRP` ?
Output: Not satisfied

Task: Is the recorded value of shrunken log2 fold change equal to or greater than -0.04 for this sequence? `RRIRCRPPRLPRPRPRPFDLPRP`
Output: Not satisfied

Task: Given the entry `RRIRMRPPRLPRPRPRPMIHPRP` , answer whether its shrunken log2 fold change meets or surpasses -0.04.
Output: Not satisfied

Task: Please check the record `RRIRLRPPRLPRPRPRPPRNPRP` and state if its shrunken log2 fold change is at or above -0.04.
Output: Satisfied

Task: Tell me whether shrunken log2 fold change is at least -0.04 here: `RRIRNRPPRLPRPRPRPDVEPRP`
Output: Satisfied

Task: shrunken log2 fold change >= -0.04 for `RRIRGRPPRLPRPRPRPCPEPRP` ?
Output: Not satisfied
